# measurement-target: Histone deacetylase 1 (Homo sapiens)
# Sequence (Q13547 whole entry): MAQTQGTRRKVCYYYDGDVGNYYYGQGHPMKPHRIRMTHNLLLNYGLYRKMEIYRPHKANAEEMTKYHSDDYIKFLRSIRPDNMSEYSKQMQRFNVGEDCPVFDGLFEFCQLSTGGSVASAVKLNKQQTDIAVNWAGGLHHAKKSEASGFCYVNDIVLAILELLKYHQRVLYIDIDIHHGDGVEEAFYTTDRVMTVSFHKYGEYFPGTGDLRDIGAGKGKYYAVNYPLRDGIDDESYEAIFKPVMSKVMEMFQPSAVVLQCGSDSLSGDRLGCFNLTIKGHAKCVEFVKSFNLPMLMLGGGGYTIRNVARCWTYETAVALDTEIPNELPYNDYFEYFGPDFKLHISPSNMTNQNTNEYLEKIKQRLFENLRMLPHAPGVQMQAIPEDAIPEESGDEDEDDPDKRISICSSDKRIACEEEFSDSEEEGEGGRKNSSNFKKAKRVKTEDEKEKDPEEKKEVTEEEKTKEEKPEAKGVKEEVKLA
# assay-overview: Inhibition of HDAC1 purified from HEK293 cells by Western blot
pIC50: −log10 of the molar value.
observation-type: pIC50

CN(Cc1ccccc1)C(=O)c1ccc(C(=O)C(F)(F)F)s1 :: 6.05

I. O=C(c1ccc(C(=O)C(F)(F)F)s1)N1CCc2ccccc21
II. C[C@H](NC(=O)c1ccc(C(=O)C(F)(F)F)s1)c1ccccc1
III. O=C(NCc1ccccc1Cl)c1ccc(C(=O)C(F)(F)F)s1
Input line: Order field: pIC50 | Direction: descending (largest first) Please respond with the labels ordered as the question requires.
Output line: III, I, II
(III: 6.26, I: 5.89, II: 5.30)

a. CC(NC(=O)c1ccc(C(=O)C(F)(F)F)s1)c1ccncc1 (stereo not given)
b. O=C(c1ccc(C(=O)C(F)(F)F)s1)N1CCn2c(-c3ccccc3)cnc2C1
Input line: Parameter check: reported pIC50 is higher for which label, a or b ? Answer = label.
Output line: a
(a: 5.80, b: 5.33)

a. O=C(c1ccc(C(=O)C(F)(F)F)s1)N1CCC(c2nnc(-c3ccccc3)o2)CC1
b. COc1ccc(Cl)cc1N1CCN(C(=O)c2ccc(C(=O)C(F)(F)F)s2)CC1
Input line: Would you mind telling me which has the lower recorded pIC50 between a and b ? In your reply, give the label of the chosen option.
Output line: b

I. O=C(c1ncc(C(=O)C(F)(F)F)s1)N1CCc2ccccc21
II. CC(NC(=O)c1ccc(C(=O)C(F)(F)F)s1)c1cccc2ccccc12 (stereo not given)
Input line: Pick one: I or II . Which has the bigger pIC50 number? API: response body contains the label of the selected item.
Output line: II
(II: 6.08, I: 5.80)

Each recorded value in this set is attributed to ChEMBL document CHEMBL1152285.
